- Tested on: ZIKV strain MR766
- EXPERIMENT_NOTES: ZIKV replication in Huh7 cells, RT-qPCR
- Type: cell-based, Zika virus
- PARTICULARS: Huh7 cells, RT-qPCR at 48 h postinfection
QUANTITY_KIND: EC50 (µM)
One number for each entry, in µM.

(Q) Fill in the recorded EC50 for this compound, with ZIKV strain MR766 as test system: CSc1ccccc1C1CCCN1C(=O)C(NC(=O)NCc1ccc(N)cc1)c1ccccc1 (stereo not shown)
(A) 48
